Data provenance is paper PMC4301037.

TGT: bovine GRK5 (Bos taurus)
Construct: when using full-length kinases as the receptor[37] instead of isolated kinase domains; made in house
Sequence (P43249 whole entry, the tested form may be a part): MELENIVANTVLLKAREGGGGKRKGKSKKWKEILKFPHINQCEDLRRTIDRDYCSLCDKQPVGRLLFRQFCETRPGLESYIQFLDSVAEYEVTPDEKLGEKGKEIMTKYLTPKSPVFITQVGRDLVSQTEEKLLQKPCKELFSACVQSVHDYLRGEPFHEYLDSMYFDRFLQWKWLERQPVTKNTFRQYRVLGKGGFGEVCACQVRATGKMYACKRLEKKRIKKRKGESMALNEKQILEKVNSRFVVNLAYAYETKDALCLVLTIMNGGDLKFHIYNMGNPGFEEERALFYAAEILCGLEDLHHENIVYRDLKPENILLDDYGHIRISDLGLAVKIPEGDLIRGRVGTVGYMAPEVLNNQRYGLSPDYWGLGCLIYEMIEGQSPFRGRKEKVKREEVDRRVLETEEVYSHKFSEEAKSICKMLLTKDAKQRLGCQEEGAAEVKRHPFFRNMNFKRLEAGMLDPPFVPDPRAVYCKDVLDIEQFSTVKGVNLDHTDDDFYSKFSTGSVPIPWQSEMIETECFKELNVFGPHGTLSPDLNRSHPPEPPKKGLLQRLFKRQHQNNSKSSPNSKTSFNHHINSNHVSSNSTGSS
MEASUREMENT_PROTOCOL: Primary DSF inhibitor screen, GRK5
Format: binding
CONDITION_SUMMARY: 10 μM compound, 2 μM kinase, relative to DMSO control; read-out: ΔTm, primary screen, GRK5
What ΔTm at 10 µM was measured for each of the following?
Write the answer as a number in °C, unit excluded.

### Prompt // lookup ΔTm at 10 µM for COC(=O)Nc1nc2ccc(Oc3ccc(NC(=O)Nc4cccc(Br)c4)cc3)cc2[nH]1 [GW694234A]
### Response 4.08

### Prompt // lookup ΔTm at 10 µM for COC(=O)Nc1nc2ccc(S(=O)(=O)c3ccc(NC(=O)Nc4cc(C(F)(F)F)ccc4F)cc3)cc2[nH]1 [GW680908A]
### Response 4.07

### Prompt // lookup ΔTm at 10 µM for CCCN1CCC(c2ccc(Nc3nc(Nc4cc(F)ccc4C(N)=O)c4cc[nH]c4n3)c(OC)c2)CC1 [GSK1326255A]
### Response 6.35

### Prompt // lookup ΔTm at 10 µM for CC1=C(C(=O)Nc2ccc3[nH]ncc3c2)C(c2ccc(Cl)c(Cl)c2)CC(=O)N1 (centres unmarked) [GSK299115A]
### Response 3.55

### Prompt // lookup ΔTm at 10 µM for O=C(Nc1ccc(Oc2ccc3nc(NC(=O)c4ccccc4)[nH]c3c2)cc1)Nc1cc(C(F)(F)F)ccc1F [GW709042A]
### Response 3.88

### Prompt // lookup ΔTm at 10 µM for `CN1CC[C@H](c2c(O)cc(O)c3c(=O)cc(-c4ccccc4Cl)oc23)[C@H](O)C1`
### Response 4.13

### Prompt // lookup ΔTm at 10 µM for Nc1nccc(C#Cc2cncnc2Nc2ccc(OCc3cccc(F)c3)c(Cl)c2)n1 [GW799251X]
### Response 4.33

### Prompt // lookup ΔTm at 10 µM for NS(=O)(=O)c1ccc(N/N=C2\C(=O)Nc3ccc(C(=O)NCCc4c[nH]cn4)cc32)cc1 [GW300660X]
### Response 3.03

###

TGT: GRK1 (Bos taurus, UniProt P28327)
Construct: Bovine GRK1_1–535, bovine and human GRK2S670A; made in house
MEASUREMENT_PROTOCOL: DSF retest (confirmation), GRK1
Type: binding, bovine
CONDITION_SUMMARY: relative to intrinsic melting point of the kinase
What GRK1 ΔTm was measured for each of the following?
Write the answer as a number in °C, unit excluded.

### Prompt // lookup GRK1 ΔTm for COc1cc2c(cc1Nc1nc(Nc3ccsc3C(N)=O)c3cc[nH]c3n1)N(C(=O)CN(C)C)CCC2(C)C [GSK2163632A]
### Response 6.4

### Prompt // lookup GRK1 ΔTm for CC1=C(C(=O)Nc2cc(Cl)c3[nH]ncc3c2)C(c2ccc(C(F)(F)F)cc2)CC(=O)N1 (stereo not shown) [GSK466317A]
### Response 4.7

### Prompt // lookup GRK1 ΔTm for CC1=C(C(=O)Nc2ccc3[nH]ncc3c2)C(c2ccc(F)cc2)NC(=O)N1 (stereo not shown) [GSK180736A]
### Response 5.4

### Prompt // lookup GRK1 ΔTm for CC1=C(C(=O)Nc2ccc3[nH]ncc3c2)C(c2ccc3ccccc3c2)CC(=O)N1 (stereo not shown) [GSK270822A]
### Response 4.7

### Prompt // lookup GRK1 ΔTm for CC1=C(C(=O)Nc2ccc3[nH]ncc3c2)C(c2ccc(F)cc2)NC(c2ccc(C(F)(F)F)nc2)=N1 (stereo not shown) [GSK317354A]
### Response 3.3

### Prompt // lookup GRK1 ΔTm for CNC(=O)c1ncccc1Nc1nc(Nc2cc3c(cc2OC)CCCN3C(=O)CN(C)C)nc2[nH]ccc12 [GSK2220400A]
### Response 8.7

###

TGT: protein kinase A (PKA) (Mus musculus, UniProt P05132)
Construct: His tag (inferred from pET15b vector and Ni-NTA column) (N); host or cells: E. coli Rosetta(DE3)pLysS
MEASUREMENT_PROTOCOL: DSF retest (confirmation), PKA
Format: binding
CONDITION_SUMMARY: relative to intrinsic melting point of the kinase
What PKA ΔTm was measured for each of the following?
Write the answer as a number in °C, unit excluded.

### Prompt // lookup PKA ΔTm for CC1=C(C(=O)Nc2ccc3[nH]ncc3c2)C(c2ccc(Cl)c(Cl)c2)CC(=O)N1 (centres unmarked) [GSK299115A]
### Response 4.1

### Prompt // lookup PKA ΔTm for CCCN1CCC(Oc2cc(Nc3nc(Nc4cccc(F)c4C(N)=O)c4cc[nH]c4n3)c(OC)cc2Cl)CC1 [GSK1713088A]
### Response 0.4

### Prompt // lookup PKA ΔTm for CC1=C(C(=O)Nc2ccc3[nH]ncc3c2)C(c2ccc(F)cc2)NC(c2ccc(C(F)(F)F)nc2)=N1 (centres unmarked) [GSK317354A]
### Response 0.5

### Prompt // lookup PKA ΔTm for CN(c1ccc(NC(=O)Nc2ccc(OC(F)(F)F)cc2)cc1)c1ccnc(Nc2cccc(S(N)(=O)=O)c2)n1 [GW806742X]
### Response 0.2

### Prompt // lookup PKA ΔTm for CC(C)COC(=O)c1ccc2c(c1)/C(=C/Nc1ccc(S(N)(=O)=O)cc1)C(=O)N2 [GW416981X]
### Response 2.3

### Prompt // lookup PKA ΔTm for Fc1ccc([C@@H]2CCNC[C@H]2COc2ccc3c(c2)OCO3)cc1 [paroxetine]
### Response 4.7

### Prompt // lookup PKA ΔTm for COc1cc2c(cc1Nc1nc(Nc3ccsc3C(N)=O)c3cc[nH]c3n1)N(C(=O)CN(C)C)CCC2(C)C [GSK2163632A]
### Response 3.1

### Prompt // lookup PKA ΔTm for CC1=C(C(=O)Nc2ccc3[nH]ncc3c2)C(c2ccc3ccccc3c2)CC(=O)N1 (centres unmarked) [GSK270822A]
### Response 6.5

###

TGT: GRK5 (Bos taurus)
Construct: when using full-length kinases as the receptor[37] instead of isolated kinase domains; made in house
Sequence (P43249 whole entry, the tested form may be a part): as above
MEASUREMENT_PROTOCOL: DSF retest (confirmation), GRK5
Format: binding, bovine
CONDITION_SUMMARY: 0.2 mg mL^–1 kinase
READOUT_KIND: GRK5 Tm (°C)
Write the answer as a number in °C, unit excluded.

### Prompt // lookup GRK5 Tm for CN(c1ccc(NC(=O)Nc2ccc(OC(F)(F)F)cc2)cc1)c1ccnc(Nc2cccc(S(N)(=O)=O)c2)n1 [GW806742X]
### Response 27.1

### Prompt // lookup GRK5 Tm for CC1=C(C(=O)Nc2ccc3[nH]ncc3c2)C(c2ccc(F)cc2)NC(c2ccc(C(F)(F)F)nc2)=N1 (stereo not drawn) [GSK317354A]
### Response 27.3

### Prompt // lookup GRK5 Tm for Fc1cccc(COc2ccc(Nc3ncnc4cc(-c5ccc[nH]5)sc34)cc2Cl)c1 [GW693881A]
### Response 27.7

### Prompt // lookup GRK5 Tm for CC1=C(C(=O)Nc2ccc3[nH]ncc3c2)C(c2ccc(Cl)c(Cl)c2)CC(=O)N1 (stereo not drawn) [GSK299115A]
### Response 28.1

### Prompt // lookup GRK5 Tm for CNC(=O)c1ncccc1Nc1nc(Nc2cc3c(cc2OC)CCCN3C(=O)CN(C)C)nc2[nH]ccc12 [GSK2220400A]
### Response 30.5

### Prompt // lookup GRK5 Tm for CC1=C(C(=O)Nc2ccc3[nH]ncc3c2)C(c2ccc3ccccc3c2)CC(=O)N1 (stereo not drawn) [GSK270822A]
### Response 29.4

###

TGT: PKA (Mus musculus)
Construct: His tag (inferred from pET15b vector and Ni-NTA column) (N); host or cells: E. coli Rosetta(DE3)pLysS
MEASUREMENT_PROTOCOL: PKA inhibition assay (ADP-Glo, CREBtide, 100 μM ATP)
Assay type: biochemical
CONDITION_SUMMARY: logarithm of IC50 (−3.3 corresponds to 0.5 mM, footnote c); 438 nM PKA, 100 μM ATP, CREBtide; read-out: PKA log IC50 (converted)
What IC50 was measured for each of the following?

### Prompt // lookup IC50 for CC1=C(C(=O)Nc2cc(Cl)c3[nH]ncc3c2)C(c2ccc(C(F)(F)F)cc2)CC(=O)N1 (stereo not drawn) [GSK466317A]
### Response 12.6 µM

### Prompt // lookup IC50 for CCCN1CCC(Oc2cc(Nc3nc(Nc4cccc(F)c4C(N)=O)c4cc[nH]c4n3)c(OC)cc2Cl)CC1 [GSK1713088A]
### Response > 501 µM

### Prompt // lookup IC50 for CN(c1ccc(NC(=O)Nc2ccc(OC(F)(F)F)cc2)cc1)c1ccnc(Nc2cccc(S(N)(=O)=O)c2)n1 [GW806742X]
### Response > 501 µM

### Prompt // lookup IC50 for CC1=C(C(=O)Nc2ccc3[nH]ncc3c2)C(c2ccc(F)cc2)NC(c2ccc(C(F)(F)F)nc2)=N1 (stereo not drawn) [GSK317354A]
### Response 200 µM

### Prompt // lookup IC50 for CC1=C(C(=O)Nc2ccc3[nH]ncc3c2)C(c2ccc3ccccc3c2)CC(=O)N1 (stereo not drawn) [GSK270822A]
### Response 50.1 µM

### Prompt // lookup IC50 for Fc1cccc(COc2ccc(Nc3ncnc4cc(-c5ccc[nH]5)sc34)cc2Cl)c1 [GW693881A]
### Response > 501 µM
